B1: Pistol ribozyme (parent)
chain: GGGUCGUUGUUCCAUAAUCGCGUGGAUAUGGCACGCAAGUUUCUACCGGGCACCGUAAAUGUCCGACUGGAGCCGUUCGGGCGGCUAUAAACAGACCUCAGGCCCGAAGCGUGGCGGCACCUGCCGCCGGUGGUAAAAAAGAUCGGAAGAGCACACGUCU

# Variants of: B1
# TEST: aptazyme ON/OFF ratio, guanine; higher = stronger switching; co-transcriptional cleavage with and without guanine
So I've got a bunch of variants here, and I need their aptazyme ON/OFF ratio values.
Reply with the value as a number alone.

Data request: Could you share which aptazyme ON/OFF ratio value was measured for U7A G9U U10C U11A C12G C13A ?
Data returned: 1.13

Data request: Now this one: U8G U10C U11A C12U C13G
Data returned: 1.14

Data request: Note, next up: U8A U10C C12G C13U
Data returned: 1.44

Data request: Another variant to look at: U7C U8C G9A U11G C12U C13U
Data returned: 1.35

Data request: What do you get for U7G U10C C12G C13A ?
Data returned: 1.09

Data request: Would you kindly repeat that for U7C U8C U10A U11G ?
Data returned: 1.37

Data request: Try this variant next: G9A U10G U11G C12A C13G
Data returned: 1.13

Data request: Also U7G U8G U11A C13G ?
Data returned: 1.24

Data request: Same for U7G U8G G9A U10C C12G C13G
Data returned: 1.16

Data request: Queued: U7G U8C G9A U10G C12U C13A
Data returned: 1.12

Data request: Quick one: U7C U8G G9A U10A U11A C12G C13G
Data returned: 1.21

Data request: How about U7A U8A U10C U11G C13A ?
Data returned: 1.13

Data request: Moving on to the next variant: U7A G9U U11C C12G C13U
Data returned: 1.12

Data request: Same question for U8C G9C U10G U11C please.
Data returned: 1.12

Data request: Record: U8C G9A U10A C12A C13U
Data returned: 1.31

Data request: Could you do the same for U7C U8C G9U U11G C12A C13G , please?
Data returned: 1.11

Data request: Please do the same for U7G U8G G9C U11G C12U C13G as well.
Data returned: 1.05

Data request: Item: U7G U8G G9U U10A U11G C12A
Data returned: 1.03

Data request: Can you handle U7A U8C G9A U10C C12A C13A next?
Data returned: 1.2

Data request: Now this one: U7G U8C U10G U11A C13A
Data returned: 1.16

Data request: // query: U7C U8C G9U U10G U11G C12U C13A
Data returned: 1.08

Data request: Cool, now U7G U8C G9C U10C C12G C13A
Data returned: 1.14

Data request: Would you mind doing U8A G9U U10C U11C C12U C13A as well?
Data returned: 1.04

Data request: Please do the same for U7G U10A U11C C13U as well.
Data returned: 1.02

Data request: Another: U7A U8C G9U U11C C13G
Data returned: 1.03

Data request: Quick one: U7C U8A G9A U10A U11C C12U C13U
Data returned: 1.1

Data request: Please answer likewise for U7A G9A U10A C12G
Data returned: 1.21

Data request: Follow-up item: U7C U8G U10C U11A C12U
Data returned: 3.58

Data request: # repeat for U7G U8A G9C U10G C13G
Data returned: 1.09

Data request: Same again, this time with U7C G9C U10A U11A C12A C13U
Data returned: 1.06

Data request: Note, next up: U7C U8G G9A U10G U11C C12G
Data returned: 1.29

Data request: Ok, now U7G G9C U10G U11G C12A C13G
Data returned: 1.13

Data request: Entry U7G U8A G9A U10A U11A please
Data returned: 1.45

Data request: Okay, and U8A G9U U10A U11C ?
Data returned: 1.03

Data request: Also U10C U11G C12U C13U , if possible.
Data returned: 1.28

Data request: # repeat for U7G U10C U11G C12A
Data returned: 1.12

Data request: Also, U8G G9U U10G U11C C12A please.
Data returned: 1.02

Data request: Same question for U7C U8G G9A U11G C13G please.
Data returned: 1.03

Data request: For U8C U10C C12U C13G then?
Data returned: 1.26

Data request: Next variant: U7C G9U U11C C12G
Data returned: 1.08

Data request: Try the variant U7G U8G G9C U10A U11G C12G C13A
Data returned: 1.1

Data request: Again, but for U8A G9A U10G U11C C12U
Data returned: 1.07

Data request: Another variant to look at: G9C U10G U11C C13A
Data returned: 1.24

Data request: Try this variant too: U7G U8G G9A U11C
Data returned: 1.54

Data request: Same question, U7A U10A C12G C13A this time
Data returned: 1.31

Data request: Lookup U7G G9U U10C U11G C12A
Data returned: 1.13
